Target: Peroxisome proliferator-activated receptor alpha (Homo sapiens)
Sequence (Q07869 whole entry): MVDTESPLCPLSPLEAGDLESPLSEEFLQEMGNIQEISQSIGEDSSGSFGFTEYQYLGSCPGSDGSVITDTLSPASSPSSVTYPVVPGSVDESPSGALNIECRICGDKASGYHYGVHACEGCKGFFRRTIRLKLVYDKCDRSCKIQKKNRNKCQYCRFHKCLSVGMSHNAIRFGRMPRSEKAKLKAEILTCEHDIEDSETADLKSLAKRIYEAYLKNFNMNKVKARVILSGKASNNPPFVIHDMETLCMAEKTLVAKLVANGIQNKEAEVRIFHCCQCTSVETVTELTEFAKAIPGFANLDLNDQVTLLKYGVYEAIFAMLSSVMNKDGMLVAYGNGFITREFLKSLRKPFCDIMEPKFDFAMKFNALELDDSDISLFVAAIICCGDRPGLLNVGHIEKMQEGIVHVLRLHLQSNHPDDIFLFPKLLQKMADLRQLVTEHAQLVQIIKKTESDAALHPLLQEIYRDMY
pIC50: −log10 of the molar value.
metric-name: pIC50

Here are 7 compounds together with their reported answers.
O=C(O)COc1ccc(SCc2cc(F)ccc2OCc2ccc(C(F)(F)F)cc2)c2c1CCC2: < 5.00
O=C(O)COc1ccc(SCc2ccc(OCc3cc(Cl)ccc3Cl)cc2)c2c1CCC2: 5.38
O=C(O)COc1ccc(SCc2c(F)cccc2OCc2ccc(C(F)(F)F)cc2)c2c1CCC2: < 5.00
O=C(O)COc1ccc(SCc2ccc(F)cc2OCc2ccc(C(F)(F)F)cc2)c2c1CCC2: 5.51
O=C(O)COc1ccc(SCc2ccc(OCc3ccc(OC(F)(F)F)cc3)cc2)c2c1CCC2: 6.17
O=C(O)COc1ccc(SCc2ccccc2OCc2ccc(C(F)(F)F)cc2)c2c1CCC2: < 5.00
O=C(O)COc1ccc(SCc2ccc(OCc3ccc(F)cc3)cc2)c2c1CCC2: < 5.00

Moving on to the next compound.
Query: // Input: O=C(O)COc1ccc(SCc2ccc(OCc3ccccc3)cc2)c2c1CCC2 . Output its pIC50 only.
Reply: < 5.00
